The entries below are paired with their reported IC50.
Assayed System: C-Raf FL (full length CRAF with Y340E and Y341E activating mutations, co-expressed with h14-3-3 zeta) (Homo sapiens (Human), UniProt P04049, Y340E/Y341E)
Sequence (P04049 whole entry Y340E/Y341E): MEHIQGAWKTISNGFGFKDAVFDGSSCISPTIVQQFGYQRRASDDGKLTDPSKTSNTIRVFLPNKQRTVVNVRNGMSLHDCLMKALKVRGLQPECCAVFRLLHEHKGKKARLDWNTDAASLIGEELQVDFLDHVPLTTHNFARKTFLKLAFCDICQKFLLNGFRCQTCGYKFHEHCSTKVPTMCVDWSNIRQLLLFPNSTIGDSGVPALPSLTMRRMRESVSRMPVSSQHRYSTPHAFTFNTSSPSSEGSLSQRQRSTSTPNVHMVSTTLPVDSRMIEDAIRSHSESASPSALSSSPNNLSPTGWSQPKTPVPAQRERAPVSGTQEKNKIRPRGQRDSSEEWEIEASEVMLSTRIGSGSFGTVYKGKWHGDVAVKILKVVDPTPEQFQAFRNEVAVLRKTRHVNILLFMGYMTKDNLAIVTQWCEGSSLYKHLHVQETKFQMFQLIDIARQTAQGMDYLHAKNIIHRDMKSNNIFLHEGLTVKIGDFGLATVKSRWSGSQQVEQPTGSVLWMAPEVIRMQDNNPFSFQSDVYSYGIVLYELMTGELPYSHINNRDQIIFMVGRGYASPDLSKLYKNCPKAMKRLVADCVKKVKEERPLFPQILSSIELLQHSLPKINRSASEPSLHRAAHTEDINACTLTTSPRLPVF
Sequence (P63104 whole entry partner): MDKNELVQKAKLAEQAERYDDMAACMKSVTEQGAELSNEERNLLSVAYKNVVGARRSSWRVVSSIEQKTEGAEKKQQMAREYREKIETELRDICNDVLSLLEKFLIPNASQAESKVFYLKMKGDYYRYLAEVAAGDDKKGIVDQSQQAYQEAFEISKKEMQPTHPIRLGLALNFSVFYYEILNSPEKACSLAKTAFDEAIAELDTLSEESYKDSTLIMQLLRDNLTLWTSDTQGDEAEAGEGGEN
Test Protocol: In vitro Raf activity determination, AlphaScreen p-MEK readout, c-Raf (C-Raf FL)
Test Parameters: c-Raf approximately 4 nM, ATP 1 μM, pre-incubation 60 minutes, reaction 1 hour
API: value field is a number in nM; no unit string.

Known results for compounds:
Compound	Unit Of Measurement	IC50
CCN1C(=O)[C@@H]2COCC[C@@]2(C)c2cc(-c3cc(NC(=O)c4ccnc(C(F)(F)F)c4)ccc3C)cnc21 (relative stereo) [Example 341]	nM	0.6
Cc1ccc(NC(=O)c2ccnc(C(F)(F)F)c2F)cc1-c1cnc2c(c1)C1CCOCC1OC(=O)N2CCO (stereo not shown)	nM	6.6
CC[C@@H]1Oc2nnc(-c3cc(NC(=O)c4ccnc(C(C)(F)F)c4)ccc3C)cc2N2CCOC[C@@H]12	nM	0.1

Quick note, IC50 for CCN1C(=O)C2CCOCCC2c2cc(-c3cc(NC(=O)c4ccnc(C(F)(F)F)c4)ccc3C)cnc21 (stereo not shown) [Example 248] landed at 0.5

Quick note, IC50 for `Cc1ncc(NC(=O)c2cccc(C(C)(F)F)c2)cc1-c1ccc2c(c1)N1CCOC[C@@H]1[C@@](F)(CO)C2` landed at 0.1

Quick note, IC50 for `CCN1C(=O)[C@@H]2COCC[C@H]2c2cc(-c3cc(NC(=O)c4ccnc(C(F)(F)F)c4)cnc3C)cnc21` landed at 0.1

Quick note, IC50 for Cc1ncc(NC(=O)c2cccc(C(F)(F)F)c2)cc1-c1cnc2c(c1)N1CCOCC1C1(COC1)C2 (racemic) landed at 0.048

---

The entries below are paired with their reported IC50.
Assayed System: C-Raf FL (full length CRAF with Y340E and Y341E activating mutations, co-expressed with h14-3-3 zeta) (Homo sapiens (Human), UniProt P04049, Y340E/Y341E)
Test Protocol: In vitro Raf activity determination, AlphaScreen p-MEK readout, c-Raf (C-Raf FL)
Test Parameters: c-Raf approximately 4 nM, ATP 1 μM, pre-incubation 60 minutes, reaction 1 hour
API: value field is a number in nM; no unit string.

Known results for compounds:
Compound	Unit Of Measurement	IC50
CCN1C(=O)C[C@@H]2COCCN2c2cc(-c3cc(NC(=O)c4cncc(C(F)(F)F)c4)ccc3C)cnc21	nM	0.1
Cc1ccc(NC(=O)c2ccnc(C(F)(F)F)c2)cc1-c1cc2c(cc1F)C[C@](F)(CO)[C@H]1COCCN21	nM	0.2

Quick note, IC50 for Cc1ccc(NC(=O)c2ccnc(C(F)(F)F)c2)cc1-c1cnc2c(c1)N1CCOCC1C(C)(C)C2O (single isomer, unassigned) [Example 334] landed at 0.4

Quick note, IC50 for Cc1ccc(NC(=O)c2ccnc(C(F)(F)F)c2)cc1-c1cnc2c(c1)N1CCOC[C@H]1C[C@]2(C)O (racemic) landed at 0.066

Quick note, IC50 for `Cc1ccc(NC(=O)c2ccnc(C(F)(F)F)c2)cc1-c1cnc2c(c1)N1CCOC[C@@H]1C(F)(F)[C@@H]2O` landed at 0.77

Quick note, IC50 for `Cc1ccc(NC(=O)c2ccnc(C(C)(F)F)c2)cc1-c1cnc2c(c1)N1CCOC[C@@H]1[C@](C#N)(CF)C2` landed at 0.1

Quick note, IC50 for Cc1ncc(NC(=O)c2ccnc(C(C)(F)F)c2)cc1-c1ccc2c(c1)N1CCOCC1CC2O (racemic) landed at 0.0098

Quick note, IC50 for Cc1ccc(NC(=O)c2ccnc(C(F)(F)F)c2)cc1-c1ccc2c(c1)N1CCOCC1CC2N (racemic) landed at 0.059

Quick note, IC50 for `Cc1ccc(NC(=O)c2ccnc(C(C)(F)F)c2)cc1-c1cc2c(nn1)OC(C)(C)[C@@H]1COCCN21` landed at 0.24

Quick note, IC50 for Cc1ncc(NC(=O)c2cccc(C(F)(F)F)c2)cc1-c1cnc2c(c1)C1CCOCCC1C(=O)N2CCO (centres unmarked) landed at 0.1

---

The entries below are paired with their reported pIC50.
Assayed System: C-Raf FL (full length CRAF with Y340E and Y341E activating mutations, co-expressed with h14-3-3 zeta) (Homo sapiens (Human), UniProt P04049, Y340E/Y341E)
Test Protocol: In vitro Raf activity determination, AlphaScreen p-MEK readout, c-Raf (C-Raf FL)
Test Parameters: c-Raf approximately 4 nM, ATP 1 μM, pre-incubation 60 minutes, reaction 1 hour
pIC50 is a log-scale quantity: -log10 of the concentration expressed in molar.

Molecule	pIC50
Cc1ccc(NC(=O)c2ccnc(C(F)(F)F)c2F)cc1-c1ccc2c(c1)N1CCOC[C@H]1[C@](F)(CO)C2 [Example 380]	9.40
CCNC(=O)C1Cc2ccc(-c3cc(NC(=O)c4cccc(C(F)(F)F)c4)cnc3C)cc2N2CCOCC12 (racemic)	9.32
Cc1ccc(NC(=O)c2ccnc(C(F)(F)F)c2)cc1-c1cnc2c(c1)N1CCOC[C@H]1C[C@@H]2C	9.30
Cc1ccc(NC(=O)c2ccnc(C(F)(F)F)c2F)cc1-c1cnc2c(c1)C1(C)CCOCCC1C(=O)N2CCO (single isomer, unassigned)	9.52
Cc1ccc(NC(=O)c2ccnc(C(C)(F)F)c2)cc1-c1cnc2c(c1)[C@@]1(C)CCOCC[C@@H]1C(=O)N2CCO (relative stereo) [Example 352]	10.00

Quick note, pIC50 for `Cc1ccc(NC(=O)c2cncc(C(F)(F)F)c2)cc1-c1cnc2c(c1)N1CCOC[C@H]1C[C@H]2O` landed at 10.77

Quick note, pIC50 for Cc1ccc(NC(=O)c2ccnc(C(C)(F)F)c2)cc1-c1cnc2c(c1)N1CCOC[C@@H]1[C@@H](C(C)(C)O)C2 [Example 456] landed at 9.15

---

Assayed System: C-Raf FL (full length CRAF with Y340E and Y341E activating mutations, co-expressed with h14-3-3 zeta) (Homo sapiens (Human), UniProt P04049, Y340E/Y341E)
Test Protocol: In vitro Raf activity determination, AlphaScreen p-MEK readout, c-Raf (C-Raf FL)
Test Parameters: c-Raf approximately 4 nM, ATP 1 μM, pre-incubation 60 minutes, reaction 1 hour
Please assign criterion not met whenever IC50 is at or above 0.3 nM, and criterion met whenever it is below.

Compound	Assigned Class
Cc1ccc(NC(=O)c2cncc(C(F)(F)F)c2)cc1-c1cc2c(cc1F)C[C@@](F)(CO)[C@H]1COCCN21	criterion not met
Cc1ccc(NC(=O)c2cnnc(C(F)(F)F)c2)cc1-c1ccc2c(c1)N1CCOC[C@H]1[C@](F)(CF)C2	criterion not met
CNC[C@H]1Cc2ncc(-c3cc(NC(=O)c4ccnc(C(F)(F)F)c4)ccc3C)cc2N2CCOC[C@H]12	criterion met
Cc1ncc(NC(=O)c2ccnc(C(C)(F)F)c2)cc1-c1ccc2c(c1)N1CCOC[C@@H]1[C@@](F)(CO)C2	criterion met
Cc1ncc(NC(=O)c2ccnc(C(C)(F)F)c2)cc1-c1ccc2c(c1)N1CCOC[C@H]1[C@](C)(C#N)C2 (racemic)	criterion met

Req: Decide: IC50 of Cc1ccc(NC(=O)c2ccnc(C(F)(F)F)c2)cc1-c1ccc2c(c1)N1CCOCC1C(CO)C2 (racemic) strictly below 0.3 nM?
Resp: criterion met

Req: Decide: IC50 of Cc1ccc(NC(=O)c2ccnc(C(C)(C)F)c2)cc1-c1ccc2c(c1)N1CCOCC1CC2O (racemic) [Example 17] strictly below 0.3 nM?
Resp: criterion met

Req: Decide: IC50 of `Cc1ncc(NC(=O)c2ccnc(C(C)(C)F)c2)cc1-c1cnc2c(c1)[C@@H]1CCOC[C@H]1C(=O)N2CCO` strictly below 0.3 nM?
Resp: criterion met

Req: Decide: IC50 of Cc1ccc(NC(=O)c2cncc(C(F)(F)F)c2)cc1-c1cnc2c(c1)C1(C)CCOCCC1C(=O)N2CCO (single isomer, unassigned) strictly below 0.3 nM?
Resp: criterion met

Req: Decide: IC50 of CCN1C(=O)C2(F)COCC[C@@H]2c2cc(-c3cc(NC(=O)c4cccc(C(F)(F)F)c4)cnc3C)cnc21 (stereo partly drawn) strictly below 0.3 nM?
Resp: criterion not met

Req: Decide: IC50 of `Cc1ncc(NC(=O)c2cccc(C(F)(F)F)c2)cc1-c1cc2c(cc1F)C[C@](F)(CO)[C@H]1COCCN21` strictly below 0.3 nM?
Resp: criterion not met

Req: Decide: IC50 of Cc1ncc(NC(=O)c2cccc(C(F)(F)F)c2)cc1-c1cnc2c(c1)N1CCOC[C@H]1C[C@@H]2O (racemic) [Example 38] strictly below 0.3 nM?
Resp: criterion met

Req: Decide: IC50 of Cc1ccc(NC(=O)c2ccnc(C(F)(F)F)c2)cc1-c1cnc2c(c1)N1CCOCCC1CC(=O)N2CCO (stereo not drawn) strictly below 0.3 nM?
Resp: criterion not met

Req: Decide: IC50 of `Cc1ccc(NC(=O)c2ccnc(C(C)(C)C#N)c2)cc1-c1cnc2c(c1)N1CCOC[C@@H]1C[C@@H]2O` strictly below 0.3 nM?
Resp: criterion met

Req: Decide: IC50 of Cc1ccc(NC(=O)c2ccnc(C(F)(F)F)c2)cc1-c1cnc2c(c1)N1CCOCC1C(CO)C2 (racemic) strictly below 0.3 nM?
Resp: criterion met

Values were extracted from patent US10377770B2.
